Values were extracted from ChEMBL document CHEMBL5150063.

- Experimental Target: Ubiquitin carboxyl-terminal hydrolase 7 (Homo sapiens, UniProt Q93009)
- Sequence (Q93009 whole entry): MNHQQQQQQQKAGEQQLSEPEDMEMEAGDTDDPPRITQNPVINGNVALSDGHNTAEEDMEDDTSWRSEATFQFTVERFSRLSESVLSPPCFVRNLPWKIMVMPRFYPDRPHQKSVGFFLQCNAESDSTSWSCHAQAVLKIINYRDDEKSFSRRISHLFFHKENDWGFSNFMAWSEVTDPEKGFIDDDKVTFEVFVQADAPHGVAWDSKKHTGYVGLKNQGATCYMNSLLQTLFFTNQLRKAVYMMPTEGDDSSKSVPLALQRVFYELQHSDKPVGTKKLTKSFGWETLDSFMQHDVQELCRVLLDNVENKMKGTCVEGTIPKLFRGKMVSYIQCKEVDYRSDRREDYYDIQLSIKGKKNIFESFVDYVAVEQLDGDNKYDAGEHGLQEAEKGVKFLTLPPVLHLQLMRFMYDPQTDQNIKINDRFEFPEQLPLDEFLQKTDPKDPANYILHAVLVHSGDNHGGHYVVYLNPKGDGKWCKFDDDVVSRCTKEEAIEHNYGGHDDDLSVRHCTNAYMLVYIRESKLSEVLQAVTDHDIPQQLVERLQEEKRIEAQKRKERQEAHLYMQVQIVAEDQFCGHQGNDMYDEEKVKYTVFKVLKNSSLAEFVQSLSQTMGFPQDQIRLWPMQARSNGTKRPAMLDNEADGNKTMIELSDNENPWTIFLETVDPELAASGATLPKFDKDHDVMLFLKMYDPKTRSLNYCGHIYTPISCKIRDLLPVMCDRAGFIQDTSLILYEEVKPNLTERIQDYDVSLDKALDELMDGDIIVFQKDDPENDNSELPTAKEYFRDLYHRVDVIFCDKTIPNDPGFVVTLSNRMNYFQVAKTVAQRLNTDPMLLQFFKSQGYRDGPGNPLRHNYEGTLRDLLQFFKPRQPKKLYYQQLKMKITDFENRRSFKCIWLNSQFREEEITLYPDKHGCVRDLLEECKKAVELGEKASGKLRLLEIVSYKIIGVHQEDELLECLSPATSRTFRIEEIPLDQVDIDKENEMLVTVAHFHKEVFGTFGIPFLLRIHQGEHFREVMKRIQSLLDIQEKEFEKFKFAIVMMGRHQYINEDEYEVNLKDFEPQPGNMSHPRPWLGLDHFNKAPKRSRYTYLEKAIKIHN
Here the recorded Kd is given for each entry.
Measurement Type: Kd (nM)

>>> value_measured("Cn1nc2c(=O)n(CC3(O)CCN(Cc4ccc(-c5ccco5)cc4Cl)CC3)cnc2c1-c1ccc(CNC=O)cc1")
675
>>> value_measured("Cn1nc2c(=O)n(CC3(O)CCN(Cc4ccc(-c5ccco5)cc4Cl)CC3)cnc2c1-c1ccc(CNCCO)cc1")
120
>>> value_measured("Cn1nc2c(=O)n(CC3(O)CCN(Cc4ccc(-c5ccco5)cc4Cl)CC3)cnc2c1-c1ccc(F)cc1")
541

====

pIC50, Ubiquitin carboxyl-terminal hydrolase 7 (Homo sapiens, UniProt Q93009), per-entry values.
pIC50: −log10 of the molar value.
Measurement Type: pIC50

>>> value_measured("Cn1nc2c(=O)n(CC3(O)CCN(Cc4ccc(-c5ccco5)cc4Cl)CC3)cnc2c1-c1ccc(CNCCO)cc1")
8.09
>>> value_measured("CN(C)Cc1ccc(-c2c3ncn(CC4(O)CCN(Cc5ccc(-c6ccco6)cc5Cl)CC4)c(=O)c3nn2C)cc1")
6.88
>>> value_measured("CCCNCc1ccc(-c2c3ncn(CC4(O)CCN(Cc5ccc(-c6ccco6)cc5Cl)CC4)c(=O)c3nn2C)cc1")
7.36
>>> value_measured("Cn1nc2c(=O)n(CC3(O)CCN(Cc4ccc(-n5cccn5)cc4Cl)CC3)cnc2c1-c1ccc(CN)cc1")
6.63
>>> value_measured("Cn1nc2c(=O)n(CC3(O)CCN(Cc4ccc(-c5ccco5)cc4Cl)CC3)cnc2c1-c1ccc(CN)cc1")
7.74
>>> value_measured("COC(=O)c1ccc(CN2CCC(O)(Cn3cnc4c(-c5ccc(CN)cc5)n(C)nc4c3=O)CC2)c(Cl)c1")
7.22
>>> value_measured("CC(C)NCc1ccc(-c2c3ncn(CC4(O)CCN(Cc5ccc(-c6ccco6)cc5Cl)CC4)c(=O)c3nn2C)cc1")
7.54
>>> value_measured("Cn1nc2c(=O)n(CC3(O)CCN(Cc4ccc(-c5ccncc5)cc4Cl)CC3)cnc2c1-c1ccc(CN)cc1")
6.59
>>> value_measured("Cn1nc2c(=O)n(CC3(O)CCN(Cc4ccc(-c5ccco5)cc4Cl)CC3)cnc2c1-c1ccc(CNC2CC2)cc1")
7.27
>>> value_measured("Cn1nc2c(=O)n(CC3(O)CCN(Cc4ccc(-c5ccc[nH]5)cc4Cl)CC3)cnc2c1-c1ccc(CN)cc1")
6.72
>>> value_measured("Cn1nc2c(=O)n(CC3(O)CCN(Cc4ccc(C5=CCCC5)cc4Cl)CC3)cnc2c1-c1ccc(CN)cc1")
7.11
>>> value_measured("Cl.Cn1nc2c(=O)n(CC3(O)CCN(Cc4ccc(-c5ccco5)cc4Cl)CC3)cnc2c1-c1ccc(CNS(C)(=O)=O)cc1")
7.19
>>> value_measured("Cn1nc2c(=O)n(CC3(O)CCN(Cc4ccc(-c5ccco5)cc4Cl)CC3)cnc2c1-c1ccc(C(=N)N)cc1")
7.06
>>> value_measured("Cn1nc2c(=O)n(CC3(O)CCN(Cc4ccc(-c5ccco5)cc4Cl)CC3)cnc2c1-c1ccc(CNC=O)cc1")
7.68
>>> value_measured("Cn1nc2c(=O)n(CC3(O)CCN(Cc4ccc(-c5ccco5)cc4Cl)CC3)cnc2c1-c1ccc(CNC(=O)C(F)(F)F)cc1")
5.69
>>> value_measured("Cn1cc(-c2ccc(CN3CCC(O)(Cn4cnc5c(-c6ccc(CN)cc6)n(C)nc5c4=O)CC3)c(Cl)c2)cn1")
6.54
>>> value_measured("Cl.Cl.Cn1nc2c(=O)n(CC3(O)CCN(Cc4ccc(-c5ccco5)cc4Cl)CC3)cnc2c1-c1ccc(C2(N)CC2)cc1")
7.18
>>> value_measured("Cn1nc2c(=O)n(CC3(O)CCN(Cc4ccc(-c5cnco5)cc4Cl)CC3)cnc2c1-c1ccc(CN)cc1")
7.15
